meta.source: patent US10385014B2

# Measurement description: Chemical stability of prodrugs in aqueous buffers
# Type: physicochemical
# Test conditions: aqueous buffer pH 7.4, 37° C.
Measure: % of Baclofen Released after 60 min
Respond with a number, then the unit of measure.

Would you kindly share the measured % of Baclofen Released after 60 min for `CCC[C@H](OC(=O)NC[C@H](CC(=O)[O-])c1ccc(Cl)cc1)OC(=O)C(C)C.[Na+]` ?
0%

Would you kindly share the measured % of Baclofen Released after 60 min for `CC(C)CC(=O)OCOC(=O)NC[C@H](CC(=O)[O-])c1ccc(Cl)cc1.[Na+]` ?
1%

Would you kindly share the measured % of Baclofen Released after 60 min for CC(C)C(OC(=O)NC[C@H](CC(=O)[O-])c1ccc(Cl)cc1)OC(=O)C(C)(C)C.[Na+] (stereo partly drawn) ?
0%

Would you kindly share the measured % of Baclofen Released after 60 min for `CCCC(=O)O[C@H](OC(=O)NC[C@H](CC(=O)[O-])c1ccc(Cl)cc1)C(C)C.[Na+]` ?
0%

Would you kindly share the measured % of Baclofen Released after 60 min for `CC(C)C(=O)OCOC(=O)NC[C@H](CC(=O)[O-])c1ccc(Cl)cc1.[Na+]` ?
0%

Would you kindly share the measured % of Baclofen Released after 60 min for `CC(C)C(=O)O[C@H](OC(=O)NC[C@H](CC(=O)[O-])c1ccc(Cl)cc1)C(C)C.[Na+]` ?
0%

Would you kindly share the measured % of Baclofen Released after 60 min for `O=C([O-])C[C@@H](CNC(=O)OCOC(=O)c1ccccc1)c1ccc(Cl)cc1.[Na+]` ?
0%

Would you kindly share the measured % of Baclofen Released after 60 min for `CCCC(=O)OCOC(=O)NC[C@H](CC(=O)[O-])c1ccc(Cl)cc1.[Na+]` ?
0%

Would you kindly share the measured % of Baclofen Released after 60 min for `CC(C)(C)C(=O)OCOC(=O)NC[C@H](CC(=O)[O-])c1ccc(Cl)cc1.[Na+]` ?
0%

Would you kindly share the measured % of Baclofen Released after 60 min for `O=C([O-])C[C@@H](CNC(=O)OCOC(=O)c1cccs1)c1ccc(Cl)cc1.[Na+]` ?
0%

Would you kindly share the measured % of Baclofen Released after 60 min for `CCOC(C)(OCC)C(=O)OCOC(=O)NC[C@H](CC(=O)[O-])c1ccc(Cl)cc1.[Na+]` ?
2%

Would you kindly share the measured % of Baclofen Released after 60 min for `CC(=O)OCOC(=O)NC[C@H](CC(=O)[O-])c1ccc(Cl)cc1.[Na+]` ?
3%

Would you kindly share the measured % of Baclofen Released after 60 min for `CC(C)C(=O)O[C@@H](OC(=O)NC[C@H](CC(=O)[O-])c1ccc(Cl)cc1)C(C)C.[Na+]` ?
0%

Would you kindly share the measured % of Baclofen Released after 60 min for CC(C)C(=O)OC(OC(=O)NC[C@H](CC(=O)[O-])c1ccc(Cl)cc1)C1CCCCC1.[Na+] (stereo partly drawn) ?
0%

Would you kindly share the measured % of Baclofen Released after 60 min for `O=C([O-])C[C@@H](CNC(=O)OCOC(=O)C1CCCCC1)c1ccc(Cl)cc1.[Na+]` ?
1%

Would you kindly share the measured % of Baclofen Released after 60 min for `CCCC(=O)O[C@H](CCC)OC(=O)NC[C@H](CC(=O)[O-])c1ccc(Cl)cc1.[Na+]` ?
1%

Would you kindly share the measured % of Baclofen Released after 60 min for CC(=O)OC(C)OC(=O)NC[C@H](CC(=O)[O-])c1ccc(Cl)cc1.[Na+] (stereo partly drawn) ?
1%

Would you kindly share the measured % of Baclofen Released after 60 min for CC(OC(=O)NC[C@H](CC(=O)[O-])c1ccc(Cl)cc1)OC(=O)c1ccccc1.[Na+] (stereo partly drawn) ?
0%
